Numbers sourced from the supplement of paper PMC11451515.

- Tested on: NOMO1
- METHOD SUMMARY: cell viability relative to DMSO control; higher = less cytotoxic
- APPLIED CONDITIONS: RPMI 5 mM glucose + 10% FBS; 48 h; 0.000781 µM
PROPERTY LABEL: cell viability (%)
Give bare numbers, in %.

* Cc1nc(N)ncc1-c1nc(N2CCOCC2)c2sc(C(C)(C)O)cc2n1 | 109

Can you give me cell viability for all of these, one by one?
1. Cc1cnc(Nc2ccc(N3CCN(C)CC3)cc2)nc1Nc1cccc([S+](=O)([O-])NC(C)(C)C)c1
2. COC(=O)[C@H](c1ccccc1Cl)N1CCc2sccc2C1
3. CN(C)CCOc1ccc(/C(=C(/CCCl)c2ccccc2)c2ccccc2)cc1
4. Cc1ccc(-c2cc(C(F)(F)F)nn2-c2ccc([S+](N)(=O)[O-])cc2)cc1
5. CCC(C1CCC(C)C(O1)C(C)C(O)C(C)C(=O)C(CC)C2OC\3(O[C@]4(CC[C@@](C)(O4)C5CC[C@@](O)(CC)C(C)O5)C(O)\C=C3)C(C)CC2C)C([O-])=O (some centres not stated)
6. CO[C@@H]1[C@@H](O)[C@H](O)[C@@H](n2c3c(Cl)cccc3c3c4c(c5c6cccc(Cl)c6[nH]c5c32)C(=O)NC4=O)O[C@H]1CO

A:
1: 100; 2: 87.8; 3: 106; 4: 115; 5: 90.5; 6: 93.3

---

- Test system: NOMO1
- METHOD SUMMARY: cell viability relative to DMSO control; higher = less cytotoxic
- APPLIED CONDITIONS: HPLM + 10% dialyzed FBS; 48 h; 0.0211 µM
PROPERTY LABEL: cell viability (%)
One number for each entry, in %.

* CC(C)(C)OC(=O)Nc1ccc(-c2cc(C(=O)NCCCCCCC(=O)NO)no2)cc1 | 89.8
* CCCCc1nc2cc(/C=C/C(=O)NO)ccc2n1CCN(CC)CC | 106
* COC(=O)[C@H](c1ccccc1Cl)N1CCc2sccc2C1 | 117
* C[C@@H](N)C1CC[C@@H](CC1)C(=O)NC2=CC=NC=C2 (stereo not given in full) | 126

Can you give me cell viability for all of these, one by one?
1. Oc1ccc([C@@H]2Oc3ccc(O)cc3[C@@H]3CCC[C@@H]32)cc1
2. O=C1CCCC(=O)C1C(=O)c1ccc(C(F)(F)F)cc1[N+](=O)[O-]

A:
1: 102; 2: 107

---

- Tested on: P12-Ichikawa
- METHOD SUMMARY: cell viability relative to DMSO control; higher = less cytotoxic
- APPLIED CONDITIONS: RPMI 5 mM glucose + 10% FBS; 48 h; 0.19 µM
PROPERTY LABEL: cell viability

Answered cases to consult:
- Cc1cccc(-c2[nH]c(C(C)(C)C)nc2-c2ccc3c(c2)OCO3)n1: 97%
- N#C/C(=C1/Nc2ccccc2S1)c1ccnc(OCc2ccc(CN3CCOCC3)cc2)n1: 109%
- CC[C@H]1CN2CCc3cc(OC)c(OC)cc3[C@@H]2C[C@@H]1C[C@H]1NCCc2cc(OC)c(OC)cc21: 69.4%

Param item: CCN(CC)CCCC(C)Nc1nc(C)cc(Nc2ccc3nc(C)cc(N)c3c2)n1 (centres undefined) ; param system: P12-Ichikawa; output cell viability: 126%
